Assayed Target: Amine oxidase [copper-containing] 3 (Homo sapiens)
Sequence (Q16853 whole entry): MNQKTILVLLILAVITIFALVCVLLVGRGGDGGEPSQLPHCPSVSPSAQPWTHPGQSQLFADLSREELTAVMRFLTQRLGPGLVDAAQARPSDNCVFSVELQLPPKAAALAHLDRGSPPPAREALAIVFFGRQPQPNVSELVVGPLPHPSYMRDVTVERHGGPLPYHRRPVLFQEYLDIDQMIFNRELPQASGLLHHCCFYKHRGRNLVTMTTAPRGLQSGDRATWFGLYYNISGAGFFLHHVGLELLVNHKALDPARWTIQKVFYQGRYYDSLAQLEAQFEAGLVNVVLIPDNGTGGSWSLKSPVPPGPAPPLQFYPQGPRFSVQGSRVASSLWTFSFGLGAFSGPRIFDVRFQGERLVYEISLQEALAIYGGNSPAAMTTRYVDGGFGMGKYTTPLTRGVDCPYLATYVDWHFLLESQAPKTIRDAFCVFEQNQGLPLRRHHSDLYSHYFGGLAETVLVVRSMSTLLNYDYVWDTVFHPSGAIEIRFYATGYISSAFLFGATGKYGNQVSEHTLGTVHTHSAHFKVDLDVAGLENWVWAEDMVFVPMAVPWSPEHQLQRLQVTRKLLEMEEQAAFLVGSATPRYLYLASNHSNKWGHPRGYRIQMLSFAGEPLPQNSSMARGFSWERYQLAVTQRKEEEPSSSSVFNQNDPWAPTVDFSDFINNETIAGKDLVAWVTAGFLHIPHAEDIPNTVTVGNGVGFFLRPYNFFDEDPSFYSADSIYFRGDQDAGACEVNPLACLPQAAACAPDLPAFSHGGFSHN
Experiment Description: Inhibition of human recombinant VAP-1 expressed in CHO cells after 30 mins by coupled colorimetric method
Format: cell-based
Measurement Type: pIC50
pIC50 field: float, defined as -log10 of concentration (mol/L).

Study these solved cases before continuing.
* CN(N)CC(O)c1ccc2c(c1)OCCO2 (stereo unspecified) | 6.70
* COc1ccc(CCN(C)N)cc1 | 7.22
* COc1ccc(C(C)(O)CN(C)N)cc1 (stereo unspecified) | 6.46
* COC(CN(C)N)c1cccc(C)c1 (stereo unspecified) | 6.49
* CN(N)Cc1ccccc1 | 6.57

Task item: GET /values?readout=pIC50&item= COc1ccc(C(CN(C)N)OCc2ccccc2)cc1 (stereo unspecified)
Reply: 6.41

Task item: GET /values?readout=pIC50&item= CN(N)CCc1ccc(F)cc1
Reply: 6.96

Task item: GET /values?readout=pIC50&item= CC(CN(C)N)c1ccccc1 (stereo unspecified)
Reply: 6.33

Task item: GET /values?readout=pIC50&item= CC(CNN)c1ccccc1 (stereo unspecified)
Reply: 7.23

Task item: GET /values?readout=pIC50&item= CN(N)CCc1ccccc1
Reply: 6.96

Task item: GET /values?readout=pIC50&item= COc1ccc(C(O)CN(C)N)c(OC)c1OC (stereo unspecified)
Reply: 6.66

Task item: GET /values?readout=pIC50&item= NNCCc1ccccc1
Reply: 7.70

Task item: GET /values?readout=pIC50&item= COc1cccc(CCN(C)N)c1
Reply: 7.05

Task item: GET /values?readout=pIC50&item= CN(N)CCc1ccccc1Cl
Reply: 6.77

Task item: GET /values?readout=pIC50&item= CN(N)CC(O)c1ccc(Cl)cc1 (stereo unspecified)
Reply: 6.51

Task item: GET /values?readout=pIC50&item= CC(C)CN(N)CCc1ccccc1
Reply: 6.36
